Origin of measurements: ChEMBL document CHEMBL1817648

# Test system: Staphylococcus epidermidis
# Experimental Protocol: Antibacterial activity against methicillin-sensitive Staphylococcus epidermidis 09-6 after 18 to 24 hrs by NCCLS M100-S11 two fold serial dilution method
# Assay type: functional
Readout Name: MIC (µg/mL)

COc1c(N2CCN(C/C(C)=N/O)C(C)C2)c(F)cc2c(=O)c(C(=O)O)cn(C3CC3)c12 (configuration not stated) : 0.25
CO/N=C(\C)CN1CCN(c2c(F)cc3c(=O)c(C(=O)O)cn(C4CC4)c3c2OC)CC1C (configuration not stated) : 4
COc1c(N2CCNC(C)C2)c(F)cc2c(=O)c(C(=O)O)cn(C3CC3)c12 (configuration not stated) : 8
CCO/N=C(\C)CN1CCN(c2c(F)cc3c(=O)c(C(=O)O)cn(C4CC4)c3c2OC)CC1C (configuration not stated) : 0.25
COc1c(N2CCN(CC/C(C)=N/O)C(C)C2)c(F)cc2c(=O)c(C(=O)O)cn(C3CC3)c12 (configuration not stated) : 0.25
COc1c(N2CCN(CC/C(C)=N/Nc3ccccc3)C(C)C2)c(F)cc2c(=O)c(C(=O)O)cn(C3CC3)c12 (configuration not stated) : 0.25
CCOC(=O)CN1CCN(c2c(F)cc3c(=O)c(C(=O)O)cn(C4CC4)c3c2OC)CC1C (configuration not stated) : 4
COc1c(N2CCN(CC/C(C)=N/NC(N)=O)C(C)C2)c(F)cc2c(=O)c(C(=O)O)cn(C3CC3)c12 (configuration not stated) : 0.25
COc1c(N2CCN(C/C(C)=N/Nc3ccccc3)C(C)C2)c(F)cc2c(=O)c(C(=O)O)cn(C3CC3)c12 (configuration not stated) : 0.25
COc1c(N2CCN(CC#N)C(C)C2)c(F)cc2c(=O)c(C(=O)O)cn(C3CC3)c12 (configuration not stated) : 0.25
COc1c(N2CCN(C/C(C)=N/NC(N)=O)C(C)C2)c(F)cc2c(=O)c(C(=O)O)cn(C3CC3)c12 (configuration not stated) : 1
COc1c(N2CCN(CC(C)=O)C(C)C2)c(F)cc2c(=O)c(C(=O)O)cn(C3CC3)c12 (configuration not stated) : 0.25
COc1c(N2CCN(C/C(C)=N/NC(C)=O)C(C)C2)c(F)cc2c(=O)c(C(=O)O)cn(C3CC3)c12 (configuration not stated) : 0.25
COc1c(N2CCN(CCC(C)=O)C(C)C2)c(F)cc2c(=O)c(C(=O)O)cn(C3CC3)c12 (configuration not stated) : 0.25
COc1c(N2CCN(CCC#N)C(C)C2)c(F)cc2c(=O)c(C(=O)O)cn(C3CC3)c12 (configuration not stated) : 2
